Sourced from ChEMBL document CHEMBL5728637

- assay-system: Tyrosine-protein kinase BTK (Homo sapiens)
- Sequence (Q06187 whole entry): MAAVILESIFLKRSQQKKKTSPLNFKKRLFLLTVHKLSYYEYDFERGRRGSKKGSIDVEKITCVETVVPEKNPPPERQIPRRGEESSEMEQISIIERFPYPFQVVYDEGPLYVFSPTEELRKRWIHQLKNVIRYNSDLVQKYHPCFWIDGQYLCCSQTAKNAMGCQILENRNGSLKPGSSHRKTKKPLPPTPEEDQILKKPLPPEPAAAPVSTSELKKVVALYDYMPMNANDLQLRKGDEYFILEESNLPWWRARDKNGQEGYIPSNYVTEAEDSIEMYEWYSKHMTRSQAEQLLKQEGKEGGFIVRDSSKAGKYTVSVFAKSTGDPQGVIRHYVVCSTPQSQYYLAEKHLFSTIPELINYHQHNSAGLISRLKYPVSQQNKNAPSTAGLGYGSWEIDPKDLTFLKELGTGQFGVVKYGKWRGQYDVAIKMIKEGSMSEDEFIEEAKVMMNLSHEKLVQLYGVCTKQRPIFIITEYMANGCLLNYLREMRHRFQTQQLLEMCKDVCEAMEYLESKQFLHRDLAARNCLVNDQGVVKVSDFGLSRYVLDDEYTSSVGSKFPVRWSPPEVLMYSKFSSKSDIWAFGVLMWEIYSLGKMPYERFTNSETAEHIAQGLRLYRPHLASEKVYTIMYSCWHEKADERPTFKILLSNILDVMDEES
value-kind: IC50 (nM)
Give the value, in units of nM, as a plain number.

* Cn1nc(Nc2c(Cl)cccc2Cl)c2cnc(Nc3ccc4c(c3)CCNC4)nc21 | 0.67

Now look at this one.
Request: Param readout= IC50; system= Tyrosine-protein kinase BTK (Homo sapiens); entry= Cc1ccc(NC(=O)Nc2cccc(C(F)(F)F)c2)cc1Nc1nn(C)c2nc(Nc3ccc4c(c3)CNCC4)ncc12 ; returns value.
Result: 26.7
